This collection of values is drawn from patent US7557085B2.

- Target Desc: CtBP2 binding to NRSF (Mus musculus)
- Sequence (P56546 whole entry): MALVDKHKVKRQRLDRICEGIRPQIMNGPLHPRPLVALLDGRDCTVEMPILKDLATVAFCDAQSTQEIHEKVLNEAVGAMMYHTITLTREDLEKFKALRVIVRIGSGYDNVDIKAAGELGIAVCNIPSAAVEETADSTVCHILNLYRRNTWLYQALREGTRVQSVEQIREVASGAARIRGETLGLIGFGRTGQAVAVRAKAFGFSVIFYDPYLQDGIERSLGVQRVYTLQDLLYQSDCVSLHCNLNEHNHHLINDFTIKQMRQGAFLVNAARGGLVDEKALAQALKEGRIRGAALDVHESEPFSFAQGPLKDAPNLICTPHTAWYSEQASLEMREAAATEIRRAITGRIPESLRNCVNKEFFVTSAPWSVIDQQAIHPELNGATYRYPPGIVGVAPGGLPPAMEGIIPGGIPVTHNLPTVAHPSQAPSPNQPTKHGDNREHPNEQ
pIC50: −log10 of the molar value.
Measured Property: pIC50

Request: Find the measured pIC50 of "NC(=O)C1=CN([C@@H]2O[C@H](COP(=O)(O)OP(=O)(O)OC[C@H]3O[C@@H](n4cnc5c(N)ncnc54)[C@H](O)[C@@H]3O)[C@@H](O)[C@H]2O)C=CC1" and report it.
Response: ~7.15
